EXPERIMENTAL_DETAILS: Selectivity index, ratio of CC50 for human HepG2.2.2.15 cells to IC50 for Hepatitis B virus infected in human HepG2.2.2.15 cells
Assay type: toxicity, cell-based
CONDITION: read-out: Selectivity Index
Recorded selectivity ratio by entry

>  <COMPOUND>
O=c1c2cc(OCCCN3CCC(O)CC3)ccc2nc(SCc2cccc(F)c2)n1Cc1ccco1

>  <selectivity ratio>
> 2.17

$$$$
>  <COMPOUND>
CCN(CC)CCOc1ccc2nc(SCc3ccccc3)n(Cc3cccs3)c(=O)c2c1

>  <selectivity ratio>
22.9

$$$$
>  <COMPOUND>
CN1CCN(CCCOc2ccc3nc(SCc4ccccc4)n(Cc4ccco4)c(=O)c3c2)CC1

>  <selectivity ratio>
> 15.9

$$$$
>  <COMPOUND>
O=c1c2cc(OCCCN3CCC(O)CC3)ccc2nc(SCc2ccccc2)n1Cc1ccco1

>  <selectivity ratio>
> 14.3

$$$$
>  <COMPOUND>
CN1CCN(CCCOc2ccc3nc(SCc4cccc(F)c4)n(Cc4ccco4)c(=O)c3c2)CC1

>  <selectivity ratio>
> 4.26

$$$$
>  <COMPOUND>
Nc1ccn([C@@H]2CS[C@H](CO)O2)c(=O)n1 [LAMIVUDINE]

>  <selectivity ratio>
> 1000

$$$$
>  <COMPOUND>
COc1ccccc1CSc1nc2ccc(OCCCOc3ccnc(N)n3)cc2c(=O)n1Cc1ccco1

>  <selectivity ratio>
> 66.7

$$$$
>  <COMPOUND>
Nc1nccc(OCCCOc2ccc3nc(SCc4ccccc4)n(Cc4ccco4)c(=O)c3c2)n1

>  <selectivity ratio>
> 32.2

$$$$

---

EXPERIMENTAL_DETAILS: Cytotoxicity against human HepG2 2.2.15 cells infected with Hepatitis B virus assessed as reduction in cell growth by CCK8 assay
Format: toxicity, cell-based

>  <COMPOUND>
CN1CCN(CCCOc2ccc3nc(SCc4ccccc4)n(Cc4ccco4)c(=O)c3c2)CC1

>  <CC50>
> 10 µM

$$$$
>  <COMPOUND>
O=c1c2cc(OCCCN3CCC(O)CC3)ccc2nc(SCc2cccc(F)c2)n1Cc1ccco1

>  <CC50>
1.83 µM

$$$$
>  <COMPOUND>
Nc1nccc(OCCCOc2ccc3nc(SCc4cccc(F)c4)n(Cc4ccccc4)c(=O)c3c2)n1

>  <CC50>
> 10 µM

$$$$
>  <COMPOUND>
O=c1c2cc(OCCCN3CCC(O)CC3)ccc2nc(SCc2ccc(F)cc2)n1Cc1ccco1

>  <CC50>
> 10 µM

$$$$
>  <COMPOUND>
Nc1nccc(OCCCOc2ccc3nc(SCc4ccccc4)n(Cc4ccco4)c(=O)c3c2)n1

>  <CC50>
> 10 µM

$$$$
>  <COMPOUND>
COc1ccccc1CSc1nc2ccc(OCCCN3CCC(O)CC3)cc2c(=O)n1Cc1ccco1

>  <CC50>
> 10 µM

$$$$
>  <COMPOUND>
Nc1ccn([C@@H]2CS[C@H](CO)O2)c(=O)n1 [LAMIVUDINE]

>  <CC50>
> 100 µM

$$$$
>  <COMPOUND>
CN1CCN(CCCOc2ccc3nc(SCc4ccc(F)cc4)n(Cc4ccco4)c(=O)c3c2)CC1

>  <CC50>
2.9 µM

$$$$
>  <COMPOUND>
Nc1nccc(OCCCCOc2ccc3nc(SCc4ccccc4)n(Cc4ccco4)c(=O)c3c2)n1

>  <CC50>
> 10 µM

$$$$
>  <COMPOUND>
Nc1nccc(OCCCOc2ccc3nc(SCc4ccccc4)n(Cc4cccs4)c(=O)c3c2)n1

>  <CC50>
> 10 µM

$$$$
